experiment: qHTS of pediatric cancer cell lines to identify multiple opportunities for drug repurposing: Primary screen for OHS-50 cells (AID 1347103); settings: OHS-50 osteosarcoma viability, CellTiter-Glo luminescence, 48 h; series mostly up to 57.3 µM; note: nearly all actives have a fitted effect of over 40% in size
Results filed as inconclusive are left out. The source made the active and inactive calls. Calls come from the whole dose curve; as a rule, active = well fitted cell-killing curve with a large enough effect; inconclusive = small, poorly fitted or top-dose-only effect; inactive = no such curve, though single readings can be large or run the other way.
Result category, one only: 1 for active, -1 for inactive

{"Smiles structure": "Nc1nc(N)c2nc(-c3cccc(O)c3)c(-c3cccc(O)c3)nc2n1", "Class assignment": 1}

Which outcome was entered for the molecule CCOc1cc2c(c(F)c1OCC)C(=N)N(CC(=O)c1cc(N3CCOCC3)c(OC)c(C(C)(C)C)c1)C2 in this test?
1

Which outcome was entered for the molecule NS(=O)(=O)OC[C@@H]1C[C@@H](n2ccc3c(N[C@H]4CCc5ccccc54)ncnc32)C[C@H]1O in this test?
-1

====

assay: qHTS of pediatric cancer cell lines to identify multiple opportunities for drug repurposing: Primary screen for NB1643 cells (AID 1347099); conditions: NB1643 neuroblastoma viability, CellTiter-Glo luminescence, 48 h; series mostly up to 46 µM; note: nearly all actives have a fitted effect of over 50% in size
Results filed as inconclusive are left out. Calls of active or inactive are those of the source. Calls come from the whole dose curve; as a rule, active = well fitted cell-killing curve with a large enough effect; inconclusive = small, poorly fitted or top-dose-only effect; inactive = no such curve, though single readings can be large or run the other way.
Result category, one only: Yes for active, No for inactive

Use these answered entries as a reference point.
{"Molecule": "CN1CCCN(C(=O)c2cccc(-c3ccc(C=C4C(=O)Nc5ccc(Cl)cc54)o3)c2)CC1", "Class assignment": "Yes"}
{"Molecule": "CCCNC(=O)[C@H]1O[C@H]1C(=O)N[C@H](C(=O)N1CCC[C@@H]1C(=O)OC)C(C)CC (stereo partly specified)", "Class assignment": "Yes"}
{"Molecule": "O=C(C=CC#Cc1cccc(NS(=O)(=O)c2ccccc2)c1)NO", "Class assignment": "Yes"}

Which outcome was entered for the molecule Nc1ncn([C@@H]2O[C@H](CO)[C@@H](O)[C@@H]2O)c(=O)n1 in this test?
Yes

Which outcome was entered for the molecule c1cc(CN2CCCNCCNCCCNCC2)ccc1CN1CCCNCCNCCCNCC1 in this test?
No

Which outcome was entered for the molecule CC(C)N(CC[C@H](c1ccccc1)c1cc(CO)ccc1O)C(C)C in this test?
No

====

Experiment: qHTS of pediatric cancer cell lines to identify multiple opportunities for drug repurposing: Primary screen for NB-EBc1 cells (AID 1347095)
Details: NB-EBc1 neuroblastoma viability, CellTiter-Glo luminescence, 48 h; series mostly up to 46 µM
Protocol: Drug repurposing or repositioning has been offered as a strategy for drug development in oncology programs. This approach has special potential for childhood cancers and other rare or orphan diseases, where the expected return on new drug development has been a disincentive to pharmaceuticals. […] We employed a titration-based paradigm (quantitative high-throughput screening or qHTS), where all compounds were tested at multiple concentrations for their effect on cell viability. […]
Records with an inconclusive call do not appear. Active and inactive are the calls of the source. Calls come from the whole dose curve; as a rule, active = well fitted cell-killing curve with a large enough effect; inconclusive = small, poorly fitted or top-dose-only effect; inactive = no such curve, though single readings can be large or run the other way. Residues, ends and D or L forms follow the SMILES beside them. *: point of attachment. Cbz = O=C(OCc1ccccc1)*
Result category, one only: active, inactive

Use these answered entries as a reference point.
{"Compound": "CC(=O)OCC(=O)[C@@]12N=C(C)O[C@H]1C[C@H]1[C@@H]3CCC4=CC(=O)C=C[C@]4(C)[C@@H]3[C@@H](O)C[C@@]12C", "Class assignment": "inactive"}
{"Compound": "c1ccc(CNc2nc(NCc3ccccc3)c3ccccc3n2)cc1", "Class assignment": "active"}
{"Compound": "Cc1ccc(O)c(C(CCN(C(C)C)C(C)C)c2ccccc2)c1 (configuration not stated)", "Class assignment": "inactive"}
{"Compound": "O=C(O)CCCCCC(=O)NN=C1CCCC1", "Class assignment": "inactive"}
{"Compound": "Cn1cc(-c2cnn3c(N)c(Br)c([C@H]4CCCNC4)nc23)cn1", "Class assignment": "active"}

Which outcome was entered for the compound CCCCCCCCCCCCCCCC(=O)OC[C@@H](NC(=O)C(Cl)Cl)[C@H](O)c1ccc([N+](=O)[O-])cc1 in this test?
inactive

Which outcome was entered for the compound O=C1NC(=O)C(=Cc2ccc3nccc(-c4ccncc4)c3c2)S1 in this test?
active

Which outcome was entered for the compound C[C@@H](Cc1cc2c(c(C(N)=O)c1)N(CCCO)CC2)NCCOc1ccccc1OCC(F)(F)F in this test?
inactive

Which outcome was entered for the compound C=CC1=C(C(=O)O)N2C(=O)[C@@H](NC(=O)C(=NO)c3csc(N)n3)[C@H]2SC1 in this test?
inactive

Which outcome was entered for the compound NS(=O)(=O)OC[C@@H]1C[C@@H](n2ccc3c(N[C@H]4CCc5ccccc54)ncnc32)C[C@H]1O in this test?
active

Which outcome was entered for the compound CC(C)C[C@@H](C=O)NC(=O)[C@H](CC(C)C)NC(=O)[C@H](CC(C)C)NC(=O)OCc1ccccc1 (Cbz-Leu-Leu-Leu-aldehyde) in this test?
active

Which outcome was entered for the compound CN(C)CC[C@H](c1ccc(Cl)cc1)c1ccccn1 in this test?
inactive

Which outcome was entered for the compound CC(=O)OCC(=O)[C@@]1(O)CC[C@H]2[C@@H]3CCC4=CC(=O)CC[C@]4(C)[C@@H]3C(=O)C[C@@]21C in this test?
inactive

Which outcome was entered for the compound Cc1cc(Nc2ncc3c(n2)N(C)C(=O)N(c2cc(NC(=O)c4cccc(C(F)(F)F)c4)ccc2C)C3)n(C)n1 in this test?
active

Which outcome was entered for the compound C[C@@H]1C(=O)O[C@H]2CC34[C@H]5C[C@@H](C(C)(C)C)C36[C@H](OC(=O)[C@@H]6O)O[C@@]4(C(=O)O5)[C@]21O (some centres not stated) in this test?
inactive

Which outcome was entered for the compound Cc1ccc(-n2[nH]c(C)c(N=Nc3cccc(-c4cccc(C(=O)O)c4)c3O)c2=O)cc1C in this test?
active

Which outcome was entered for the compound COc1cc2c(Nc3ccc(Cl)c(Cl)c3F)ncnc2cc1OCC1C[C@@H]2CN(C)C[C@H]2C1 in this test?
active
